The reported numbers originate from patent US20180209983A1.

Target: T1, purified recombinant PD-L1-Fc protein (UniProt Q9NZQ7 19-238)
T1 construct: also called B7-H1; not shown: Fc portion
T1 sequence (Q9NZQ7 19-238 limits assumed): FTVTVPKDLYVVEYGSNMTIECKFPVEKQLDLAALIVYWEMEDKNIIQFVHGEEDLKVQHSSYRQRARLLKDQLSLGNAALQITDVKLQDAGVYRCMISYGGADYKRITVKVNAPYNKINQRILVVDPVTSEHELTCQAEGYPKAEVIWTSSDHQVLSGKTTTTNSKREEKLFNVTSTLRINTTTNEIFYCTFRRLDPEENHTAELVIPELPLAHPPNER
Assay: phage ELISA; signal on target-Fc over non-specific control (e.g. IgG1-Fc); average where several clones
# ELISA ratio per record follows
The response must contain the number and no unit.

Binder | Meas Value
DBDpp of SEQ ID NO: 42, phage-displayed (designed binder, F3 library; rescued M13 phage clone, DBDpp fused to pIII) MGSWYEFESRLDAIHERLHALGGSEAELAAFEKEIAAFESELQAYKGKGNPEVENLRGDAAFIRHFLQAYRHN | 4.88

Fill blank: measured ELISA ratio of the binder DBDpp of SEQ ID NO: 44, phage-displayed (designed binder, F3 library; rescued M13 phage clone, DBDpp fused to pIII) MGSWFEFENRLHAIVHRLGALGGSEAELAAFEKEIAAFESELQAYKGKGNPEVETLRADAAFIRHYLQAYRHN is ____.
2.76

# ELISA ratio lookup, item DBDpp of SEQ ID NO: 38, phage-displayed (designed binder, F3 library; rescued M13 phage clone, DBDpp fused to pIII) MGSWTEFQSRLDAIHSRLRALGGSEAELAAFEKEIAAFESELQAYKGKGNPEVELLRDDAAFIRHFLQAYRHN
8.68

State the recorded ELISA ratio for this entry: DBDpp of SEQ ID NO: 39, phage-displayed (designed binder, F3 library; rescued M13 phage clone, DBDpp fused to pIII) MGSWQEFDDRLNAIKARLQALGGSEAELAAFEKEIAAFESELQAYKGKGNPEVEDLRDDAAFIRRFLQAYRHN
7.41

For the binder DBDpp of SEQ ID NO: 40, phage-displayed (designed binder, F3 library; rescued M13 phage clone, DBDpp fused to pIII) MGSWYEFQNRLHAIHERLNALGGSEAELAAFEKEIAAFESELQAYKGKGNPEVELLRDDAAFIRHFLQAYRHN , what ELISA ratio is on record?
6.34

Reported ELISA ratio, binder DBDpp of SEQ ID NO: 41, phage-displayed (designed binder, F3 library; rescued M13 phage clone, DBDpp fused to pIII) MGSWFEFQDRLTAINERLSALGGSEAELAAFEKEIAAFESELQAYKGKGNPEVETLRSDAAFIRRFLQAYRHN : ____
6.01

Using the record for DBDpp of SEQ ID NO: 43, phage-displayed (designed binder, F3 library; rescued M13 phage clone, DBDpp fused to pIII) MGSWYEFNHRLDAISKRLNALGGSEAELAAFEKEIAAFESELQAYKGKGNPEVEELRGDAAFIRHFLQAYRHN , report its ELISA ratio.
2.98
